experiment: Saturation mutagenesis of SEQ ID NO:109: dicamba decarboxylation activity of point mutants (CO2 released), fold of backbone (Tables 7, 8, Megatable 1); conditions: decarboxylation activity (CO2 released) of point mutant vs unmutated backbone protein; backbone SEQ ID NO: 109
observation_type: Fold Activity (fold)
Unit fold implied. Number only.

Which Fold Activity value belongs to 35 (protein, Burkholderia sp) MAFKASRKIALEEHFAIDATVQDSAGFVPPSYWAELKRRLLDIHDRRIDEMDRNGVELMVLSLNAPTVQAVPNIKDAYDLSRRANDFLAEQIVKRPERFKGFAALPMQSPDLAARELERCVKELNFVGALVNGFSQVEESGTALYYDLPQYRQFWSVVQALDVPFYLHPRNPLPAHAPIYEGHPWLLGPTWAFGQETAVHALRLMGSGLFDEYPELKIILGHMGEGLPYSMWRIDNRNAWVETQPNYPAKKRIAEYFHKNFWLTTSGNFRTQTLIDAMLEIGSDRILFSTDWPFENVDHAAQWFDDAAISENDRIKIARTNAARLFKLEP ?
2.2
